Test system: DU-4475 (Breast Carcinoma)
test-method-notes: Bliss excess, mean over the matrix (fraction); higher = more synergy
assay-readout: Bliss excess
Lab note: record just the number, no unit beside it.

Worked cases, Bliss excess given:
1) CC(=O)c1c(C)c2cnc(Nc3ccc(N4CCNCC4)cn3)nc2n(C2CCCC2)c1=O [Palbociclib] + CN(CC[C@H](CSC1=CC=CC=C1)NC2=C(C=C(C=C2)S(=O)(=O)NC(=O)C3=CC=C(C=C3)N4CCC(CC4)[C@H](C5=CC=CC=C5C6=CC=C(C=C6)Cl)O)S(=O)(=O)C(F)(F)F)CCO [AZD4320] (first compound max 10 µM, 7x7, partner max 1 µM)    0.0318
2) CCN(CCO)CCCOc1ccc2c(Nc3cc(CC(=O)Nc4cccc(F)c4)[nH]n3)ncnc2c1 [AZD2811] + O=C(c1cc(Cc2n[nH]c(=O)c3ccccc23)ccc1F)N1CCN(C(=O)C2CC2)CC1 [Olaparib] (first compound max 1 µM, 7x7, partner max 10 µM)    0.0213
3) COc1cccc(OCCCN)c1-c1cc(Nc2cnc(C#N)cn2)n[nH]1 [Prexasertib] + CCc1c2c(nc3ccc(O)cc13)-c1cc3c(c(=O)n1C2)COC(=O)[C@]3(O)CC [SN-38] (first compound max 1 µM, 7x7, partner max 0.3 µM)    0.0035

// query Bliss excess value for entry COc1nnc2ccc(N3CCC(c4ccc(OCCN5CCN(C)C(=O)[C@H]5C)cc4)CC3)nn12 [AZD5153] + Cc1c2c(nn1C)CSCc1cc(n(C)n1)CSc1cc(c3ccccc3c1)OCCCc1c(C(=O)O)n(C)c3c-2c(Cl)ccc13 [AZD5991] (first compound max 1 µM, 7x7, partner max 1 µM)
0.0617

// query Bliss excess value for entry COc1nnc2ccc(N3CCC(c4ccc(OCCN5CCN(C)C(=O)[C@H]5C)cc4)CC3)nn12 [AZD5153] + CCN(CCO)CCCOc1ccc2c(Nc3cc(CC(=O)Nc4cccc(F)c4)[nH]n3)ncnc2c1 [AZD2811] (first compound max 1 µM, 7x7, partner max 1 µM)
0.0934

// query Bliss excess value for entry COc1cccc2c1C(=O)c1c(O)c3c(c(O)c1C2=O)C[C@@](O)(C(=O)CO)C[C@@H]3O[C@H]1C[C@H](N)[C@H](O)[C@H](C)O1 [Doxorubicin] + Cc1cc2ncnn2cc1Nc1ncc2c(n1)n(C1CCOCC1)c(=O)n2C [AZD7648] (first compound max 1 µM, 7x7, partner max 10 µM)
0.143

// query Bliss excess value for entry CC1(C)CCC(CN2CCN(c3ccc(C(=O)NS(=O)(=O)c4ccc(NCC5CCOCC5)c([N+](=O)[O-])c4)c(Oc4cnc5[nH]ccc5c4)c3)CC2)=C(c2ccc(Cl)cc2)C1 [Venetoclax] + C1CN(CCC1(C(=O)N[C@@H](CCO)C2=CC=C(C=C2)Cl)N)C3=NC=NC4=C3C=CN4 [Capivasertib] (first compound max 1 µM, 7x7, partner max 3 µM)
0.0239

====

Measured combination Emax accompanies every entry in the list below.
Tested on: LU-165 (Small Cell Lung Carcinoma)
test-method-notes: combination Emax (second highest fraction inhibited in the dose matrix, 72 h); higher = more inhibition; extreme values may be limits of the assay

Worked cases, combination Emax given:
1. N#Cc1cnc(Nc2cc(NC[C@H]3CNCCO3)c(C(F)(F)F)cn2)cn1 [SRA737] + CCc1c2c(nc3ccc(O)cc13)-c1cc3c(c(=O)n1C2)COC(=O)[C@]3(O)CC [SN-38] (first compound max 10 µM, 7x7, partner max 0.3 µM)    0.647
2. CN(CCO)CC[C@H](CSc1ccccc1)Nc1ccc(S(=O)(=O)NC(=O)c2ccc(N3CCC([C@@H](O)c4ccccc4-c4ccc(Cl)cc4)CC3)cc2)cc1S(=O)(=O)C(F)(F)F [AZD4320] + Cn1cnc2c(F)c(Nc3ccc(Br)cc3Cl)c(C(=O)NOCCO)cc21 [Selumetinib] (first compound max 1 µM, 7x7, partner max 3 µM)    0.748
3. C[C@@H]1COCCN1c1cc(C2([S@](C)(=N)=O)CC2)nc(-c2ccnc3[nH]ccc23)n1 [AZD6738] + C1CC(C1)(C(=O)[O-])C(=O)[O-].N.N.[Pt+2] [Carboplatin] (first compound max 10 µM, 7x7, partner max 10 µM)    0.41

From here, focus on the item given below.
// query combination Emax value for entry NC1(C(=O)N[C@@H](CCO)c2ccc(Cl)cc2)CCN(c2ncnc3[nH]ccc23)CC1 [Capivasertib] + CCN(CCO)CCCOc1ccc2c(Nc3cc(CC(=O)Nc4cccc(F)c4)[nH]n3)ncnc2c1 [AZD2811] (first compound max 10 µM, 7x7, partner max 1 µM)
0.47

====

Test system: KYSE-220 (Esophageal Squamous Cell Carcinoma)
test-method-notes: combination Emax (second highest fraction inhibited in the dose matrix, 72 h); higher = more inhibition; extreme values may be limits of the assay
assay-readout: combination Emax
Lab note: record just the number, no unit beside it.

1) CN(C)CCCOc1ccc(-c2ccc3ncc4c(c3c2)n(C2CCOCC2)c(=O)n4C)cn1 [AZD0156] + C=CCn1c(=O)c2cnc(Nc3ccc(N4CCN(C)CC4)cc3)nc2n1-c1cccc(C(C)(C)O)n1 [AZD1775] (first compound max 1 µM, partner max 1 µM)    0.812
2) C[C@@H]1COCCN1c1cc(C2([S@](C)(=N)=O)CC2)nc(-c2ccnc3[nH]ccc23)n1 [AZD6738] + Nc1ccn([C@@H]2O[C@H](CO)[C@@H](O)C2(F)F)c(=O)n1 [Gemcitabine] (first compound max 10 µM, 7x7, partner max 0.3 µM)    0.857

From here, focus on the item given below.
// query combination Emax value for entry CN(CCO)CC[C@H](CSc1ccccc1)Nc1ccc(S(=O)(=O)NC(=O)c2ccc(N3CCC([C@@H](O)c4ccccc4-c4ccc(Cl)cc4)CC3)cc2)cc1S(=O)(=O)C(F)(F)F [AZD4320] + C[C@@H](Nc1cc(F)cc(F)c1)c1cc(C(=O)N(C)C)cc2c(=O)cc(N3CCOCC3)oc12 [AZD8186] (first compound max 1 µM, 7x7, partner max 3 µM)
0.35

====

Tested on: JHH-2 (Hepatocellular Carcinoma)
test-method-notes: Bliss excess, mean over the matrix (fraction); higher = more synergy
assay-readout: Bliss excess
Lab note: record just the number, no unit beside it.

1) COc1cccc(OCCCN)c1-c1cc(Nc2cnc(C#N)cn2)n[nH]1 [Prexasertib] + C[C@@H]1COCCN1C2=NC(=NC(=C2)C3(CC3)[S@](=N)(=O)C)C4=C5C=CNC5=NC=C4 [AZD6738] (first compound max 1 µM, 7x7, partner max 10 µM)    -0.0136

From here, focus on the item given below.
// query Bliss excess value for entry Cc1c2c(nn1C)CSCc1cc(n(C)n1)CSc1cc(c3ccccc3c1)OCCCc1c(C(=O)O)n(C)c3c-2c(Cl)ccc13 [AZD5991] + Nc1ccn([C@@H]2O[C@H](CO)[C@@H](O)C2(F)F)c(=O)n1 [Gemcitabine] (first compound max 1 µM, 7x7, partner max 0.3 µM)
-0.005

====

Measured combination Emax accompanies every entry in the list below.
System: DMS-53 (Small Cell Lung Carcinoma)
test-method-notes: combination Emax (second highest fraction inhibited in the dose matrix, 72 h); higher = more inhibition; extreme values may be limits of the assay
Lab note: record just the number, no unit beside it.

1) COc1nnc2ccc(N3CCC(c4ccc(OCCN5CCN(C)C(=O)[C@H]5C)cc4)CC3)nn12 [AZD5153] + C=CCn1c(=O)c2cnc(Nc3ccc(N4CCN(C)CC4)cc3)nc2n1-c1cccc(C(C)(C)O)n1 [AZD1775] (first compound max 1 µM, partner max 1 µM)    0.51
2) Cn1cnc2c(F)c(Nc3ccc(Br)cc3Cl)c(C(=O)NOCCO)cc21 [Selumetinib] + C=CCn1c(=O)c2cnc(Nc3ccc(N4CCN(C)CC4)cc3)nc2n1-c1cccc(C(C)(C)O)n1 [AZD1775] (first compound max 10 µM, partner max 1 µM)    0.247
3) Cc1c2c(nn1C)CSCc1cc(n(C)n1)CSc1cc(c3ccccc3c1)OCCCc1c(C(=O)O)n(C)c3c-2c(Cl)ccc13 [AZD5991] + Cn1cnc2c(F)c(Nc3ccc(Br)cc3Cl)c(C(=O)NOCCO)cc21 [Selumetinib] (first compound max 1 µM, 7x7, partner max 3 µM)    0.618

From here, focus on the item given below.
// query combination Emax value for entry COc1cccc(OCCCN)c1-c1cc(Nc2cnc(C#N)cn2)n[nH]1 [Prexasertib] + CN(C)CCCOc1ccc(-c2ccc3ncc4c(c3c2)n(C2CCOCC2)c(=O)n4C)cn1 [AZD0156] (first compound max 1 µM, 7x7, partner max 1 µM)
0.275

====

System: WM1552C (Melanoma)
test-method-notes: Bliss excess, mean over the matrix (fraction); higher = more synergy
assay-readout: Bliss excess
Lab note: record just the number, no unit beside it.

Worked cases, Bliss excess given:
1) CC(=O)c1c(C)c2cnc(Nc3ccc(N4CCNCC4)cn3)nc2n(C2CCCC2)c1=O [Palbociclib] + Cn1cnc2c(F)c(Nc3ccc(Br)cc3Cl)c(C(=O)NOCCO)cc21 [Selumetinib] (first compound max 10 µM, 7x7, partner max 10 µM)    -0.0078
2) CC1(C)CCC(CN2CCN(c3ccc(C(=O)NS(=O)(=O)c4ccc(NCC5CCOCC5)c([N+](=O)[O-])c4)c(Oc4cnc5[nH]ccc5c4)c3)CC2)=C(c2ccc(Cl)cc2)C1 [Venetoclax] + CS(=O)(=O)CCNCc1ccc(-c2ccc3ncnc(Nc4ccc(OCc5cccc(F)c5)c(Cl)c4)c3c2)o1 [Lapatinib] (first compound max 1 µM, 7x7, partner max 10 µM)    -0.0328

From here, focus on the item given below.
// query Bliss excess value for entry C=CCn1c(=O)c2cnc(Nc3ccc(N4CCN(C)CC4)cc3)nc2n1-c1cccc(C(C)(C)O)n1 [AZD1775] + C1CN(CCC1(C(=O)N[C@@H](CCO)C2=CC=C(C=C2)Cl)N)C3=NC=NC4=C3C=CN4 [Capivasertib] (first compound max 3 µM, partner max 3 µM)
0.0306
